All values here come from PubChem BioAssay (NCI).

- TEST DETAILS: NCI Yeast Anticancer Drug Screen. Data for the mlh1 rad18 strain (AID 175)
- MEASUREMENT CONDITIONS: S. cerevisiae mlh1 rad18 strain growth inhibition; at 50.0 µM; stronger effect = higher value
The panel holds about 79,000 compounds, 15% with a hit somewhere; the sample as a whole holds those more often.
PROPERTY LABEL: growth inhibition (%)
Report the value in % with no unit label.

Output growth inhibition of CCN(CC)c1cccc2c1C1(O)CCC3(CC21)OCCCCO3 (stereo unspecified)
-28.9

Query growth inhibition for CC(C)CCC(=O)O
-10.4

Quick one: give measured growth inhibition for Cc1ccc2nc[nH]c(=O)c2c1
-12.8

Let me know recorded growth inhibition for CC1=C(/C=C/Cl)CC(Cl)C(C)(Cl)C1 (stereo unspecified) , thanks.
-45.2

Give growth inhibition for the following compound: COc1nc(Cl)cc2nc(Cl)cn12
2.55

Complete the entry with growth inhibition for CCCc1c(O)cccc1O
11

* * *

For each of the compounds below, state its growth inhibition.
- TEST DETAILS: NCI Yeast Anticancer Drug Screen. Data for the bub3 strain (AID 167)
- MEASUREMENT CONDITIONS: S. cerevisiae bub3 mutant strain, at 50.0 µM, stronger effect = higher value
- Procedure: Growth inhibition of yeast strains with defined genetic alterations is measured as a screen for potential anti-cancer activity. Selected strains with alterations in DNA damage repair or cell cycle control were exposed to compounds and growth inhibition was measured relative to vehicle treated controls. The strain used in this assay is bub3
The panel holds about 79,000 compounds, 15% with a hit somewhere; the sample as a whole holds those more often.
Number only, in %; omit the unit.

Specify reported growth inhibition for the compound shown: O=C1OC(=O)C2C1C1C=CC2C1(c1ccccc1)c1ccccc1 (stereo not drawn)
25.5

Check the records and state growth inhibition for CC(=O)Nc1cc(F)c(N=Nc2ccc(F)cc2)c(F)c1
-16.1

Determine from records and report growth inhibition for COc1cc2c(cc1OCc1ccccc1)C(c1cc(OC)c(OC)c(OC)c1)=C1C(=O)OCC1C2 (stereo not drawn)
-1.25

* * *

- TEST DETAILS: NCI Yeast Anticancer Drug Screen. Data for the mlh1 rad18 strain (AID 175)
- MEASUREMENT CONDITIONS: S. cerevisiae mlh1 rad18 strain growth inhibition; at 50.0 µM; stronger effect = higher value
- Method: Growth inhibition of yeast strains with defined genetic alterations is measured as a screen for potential anti-cancer activity. Selected strains with alterations in DNA damage repair or cell cycle control were exposed to compounds and growth inhibition was measured relative to vehicle treated controls. The strain used in this assay is mlh1 rad18
About 79,000 compounds went through this panel and 15% of them were active in at least one assay; those are over-represented in the sample as a whole.
For each entry below, report its growth inhibition value.
Answer format: numeric, % implied, no suffix.

Name the recorded growth inhibition of the compound listed here: COc1ccc2c(c1)c1cc(OC)ccc1n2CCCCOc1ccc(-c2c3ccccc3c(-c3ccc(OCCCCn4c5ccc(OC)cc5c5cc(OC)ccc54)cc3)c3ccccc23)cc1
29.6

For the compound Cc1ccc2nc(N(C)C)nc(N)c2c1 , give its measured growth inhibition value.
-6.2

Read off the recorded growth inhibition for CCOCC(=O)N[C@H]1CCc2cc(OC)c(OC)c(OC)c2-c2ccc(SC)c(=O)cc21
47.1

Entry O=C1C2=C(Nc3ccccc3N2)OC1c1ccc2c(c1)OCO2 (configuration not stated) needs its growth inhibition filled in; supply it.
-0.1

Give reported growth inhibition value for CCC1CCC(OC(=O)Nc2cccc3ccccc23)CC1 (configuration not stated)
-10.4

Please report growth inhibition for the following compound: S=C1SCN(c2ccc(Br)cc2)CN1c1ccc2[nH]c(=S)sc2c1
5.65

Return the recorded growth inhibition value; entry: O=C1Cc2c([nH]c3c(Cl)cccc23)-c2ccccc2N1
-23.4

Assign growth inhibition to the following record: Cc1nc(Cc2ccc(O)c(O)c2)c(C)o1
8.2

Specify measured growth inhibition for O=[N+]([O-])c1ccc(-c2cc3ccccn3c2)cc1 .
-18.1

Annotate the compound Cc1ccc(C(C)[N+](=O)[O-])cc1 (configuration not stated) with its measured growth inhibition.
18.2

# return recorded growth inhibition for input CC(=O)OC(C)(C#N)C(C)(C#N)OC(C)=O (configuration not stated)
-20.3

State its growth inhibition: Nc1ccc(S(=O)(=O)Nc2ccc([N+](=O)[O-])cn2)cc1
-15.6

* * *

- TEST DETAILS: NCI Yeast Anticancer Drug Screen. Data for the rad50 strain (AID 155);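 also: 0% = growth of vehicle-only cultures of the same strain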
- MEASUREMENT CONDITIONS: S. cerevisiae rad50 strain growth inhibition; at 50.0 µM; stronger effect = higher value
This is part of a sample that, as a whole, favours compounds with a hit. Of some 79,000 tested, about 15% had one in any assay.
PROPERTY LABEL: growth inhibition (%)
Give just the numeric value; % need not be written.

Could you please provide reported growth inhibition for COc1ccc(OC)c(CCCCC(N)=O)c1 ? Thanks!
-19.8

Give growth inhibition for Oc1ccccc1/C=N/n1cnnc1
8.55

Tell us which growth inhibition value is on record for O=C1CCCC/C1=C\c1ccc([N+](=O)[O-])cc1
28.4

Write down growth inhibition measured for item Cc1nn(-c2ccc(Cl)cc2)c2c1c(=O)[nH]c1ccccc12
6

Given the molecule CCCCn1cnc2c(SC(C)C)nc(N)nc21 , write its reported growth inhibition.
-13.1

Specify reported growth inhibition for the molecule shown: CCCOc1ccc(C(=O)C(C(c2ccccc2)N2CCOCC2)N2CCOCC2)cc1 (stereo unspecified)
-71.2

Please list growth inhibition recorded for the molecule O/N=C/C(=Nc1cccc2ccccc12)NO
-11.1

Provide only the value of recorded growth inhibition for CCCCCCCCCC(=O)OCC1OC(n2cc(F)c(=O)[nH]c2=O)C(N)C(OC(=O)CCCCCCCCC)C1O (stereo unspecified)
42.8

Determine its reported growth inhibition: CC(/C=N\NC(=S)SCc1ccccc1)=N/N=C(N)N
52.4

Read off the recorded growth inhibition for CC(N=C(N)N)C(=O)O (stereo unspecified)
-11.9

Tell me its growth inhibition given CC1CCCC2(CC[N+](C)(CCC[N+](C)(C)C)CC2)C1 (stereo unspecified) as the entry.
-9.5

* * *

- TEST DETAILS: NCI Yeast Anticancer Drug Screen. Data for the bub3 strain (AID 167)
- MEASUREMENT CONDITIONS: S. cerevisiae bub3 mutant strain, at 50.0 µM, stronger effect = higher value
This is part of a sample that, as a whole, favours compounds with a hit. Of some 79,000 tested, about 15% had one in any assay.
PROPERTY LABEL: growth inhibition (%)
Respond numerically; units are % and should not be typed.

Report measured growth inhibition; entry is CCO/C(O)=c1/s/c(=C2/SC(=S)N(c3ccc(C)cc3)C2=O)n(-c2ccccc2)c1=N
-21.4

State, in one line, measured growth inhibition of Cn1c2nc(-[n+]3ccc(N4CCOCC4)cc3)nc-2c([O-])n(C)c1=O
-10.8

Give the value of growth inhibition reported for the following: CCOC(=O)/C=C/c1ccc(OCC)cc1
-1.35

* * *

For each record, write down the corresponding growth inhibition.
- TEST DETAILS: NCI Yeast Anticancer Drug Screen. Data for the rad50 strain (AID 155);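 also: 0% = growth of vehicle-only cultures of the same strain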
- MEASUREMENT CONDITIONS: S. cerevisiae rad50 strain growth inhibition; at 50.0 µM; stronger effect = higher value
This is part of a sample that, as a whole, favours compounds with a hit. Of some 79,000 tested, about 15% had one in any assay.
Write the number in % without appending the unit.

Give the reported value of growth inhibition for this record: O=S(=O)(O)Cc1cccc2ccccc12
38

Specify reported growth inhibition for the compound shown: CSc1ncc2c(n1)-c1ccccc1OC2N1CCOCC1 (centres undefined)
-4.95

Using known records, supply growth inhibition for CCCCCCCCCC1OCC(COCC)O1 (centres undefined)
-2.6

Return reported growth inhibition. Input compound: CCC1(CC)NC(=S)NC1=S
24.5

* * *

Provide the recorded growth inhibition for the entries that follow.
- TEST DETAILS: NCI Yeast Anticancer Drug Screen. Data for the bub3 strain (AID 167)
- MEASUREMENT CONDITIONS: S. cerevisiae bub3 mutant strain, at 50.0 µM, stronger effect = higher value
The panel holds about 79,000 compounds, 15% with a hit somewhere; the sample as a whole holds those more often.
Reply numerically in %, unit not repeated.

Quote growth inhibition reported for CCCc1ccc(N=Nc2ccc(C(=O)O)cc2)cc1 please.
-11.9

Could you please provide reported growth inhibition for O=C(O)/C=C/C(=O)Nc1ccccc1Cl ? Thanks!
42.2

Determine its reported growth inhibition: CC1=C(C(=O)Nc2ccccc2C)C(c2ccc(N(C)C)cc2)C(C(=O)Nc2ccccc2C)=C(C)N1
-8.95

For the compound O=C(CNc1ccccc1)c1ccc(O)c(C(=O)O)c1 (tested in a mixture with another compound) , give its reported growth inhibition.
-0.7

Supply growth inhibition value. Item: CCC(=O)OCCCC1CCCO1 (stereo not given)
2

Assign growth inhibition to the following record: COc1cc(C(=O)Nc2ccc(S(=O)(=O)Nc3nc(C)cc(C)n3)cc2)cc(OC)c1OC
-4.9

Let me know recorded growth inhibition for CCc1c2ccccc2cc2ccccc12 , thanks.
1.8

Read the entry COc1ccc(OC)c(C(N)=O)c1 and write its reported growth inhibition.
0.85

Supply growth inhibition value. Item: CCOC1NC(/N=C/c2ccc(OC)cc2)=C(C#N)C1C#N (stereo not given)
-28.1

Hello, please tell me recorded growth inhibition for this one: O=C1S/C(=C2\C(=O)N(CN3CCCCC3)c3ccccc32)C(=O)N1CN1CCCCC1
-1.1

Supply recorded growth inhibition for CCOC(=O)C1=C(NC(=O)C(c2ccccc2)c2ccccc2)OCC1 here.
-13.3

Tell us which growth inhibition value is on record for O=c1oc2ccccc2c2c1Sc1ccccc1N2
2.05

Complete the entry with growth inhibition for CCCCCC1CCN(C(=O)c2ccc(N)cc2)CC1
94.4

Report measured growth inhibition; entry is NC1=NC(c2ccc(Cl)cc2)N(c2ccc(S(N)(=O)=O)cc2)C(N)=N1 (stereo not given)
-11.3

For CCCC(CCc1ccccc1)C(N)=O (stereo not given) , write its growth inhibition.
10.8
